system: MDA-MB-468 breast; experiment: NCI-60 one-dose screen, 48 h (100 = growth as untreated, 0 = no growth, -100 = all killed); conditions: 10 µM unless noted
This is part of a sample that, as a whole, favours compounds with a hit. Of some 83,000 tested, about 20% had one in any assay.
OBSERVATION TYPE: growth (%)
One number for each entry, in %.

| COMPOUND | growth (%) |
| --- | --- |
| O=C(Nc1cccc([N+](=O)[O-])c1)c1ccc(Cl)c(Cl)c1 | 64.2 |
| CCOC(=O)c1c(NC(=O)c2ccccc2C(F)(F)F)sc2c1CCC(=O)C2 | 58.6 |
| CCOC(=O)C1=C(N)Oc2c(sc3c(C)cccc23)C1c1ccc(F)cc1 (centres undefined) | 6.58 |
| O=C(Nc1ccccc1O)c1ccc(Oc2cccc(C(=O)Nc3ccccc3O)c2)cc1 | -27.2 |
| C=C(CNCCO)[C@@H]1CC[C@]2(CO)CC[C@]3(C)[C@H](CC[C@@H]4[C@@]5(C)CCC(NCCO)C(C)(C)[C@@H]5CC[C@]43C)[C@@H]12 (some centres undefined) | 51 |

Could I get growth for every one of these entries?
1. COc1cccc(Nc2ccnc3[nH]c4ccc([N+](=O)[O-])cc4c23)c1
2. COc1ccc(C(=O)N2NC(=O)/C(=C/c3cn(-c4ccccc4)nc3-c3ccccc3)N=C2c2ccccc2)cc1

Result string:
1. 23.1
2. 95.7

Could I get growth for every one of these entries?
1. Oc1[nH]c2ccc(Cl)cc2c1/C=c1/ccc2c(c1)N=C(c1cccs1)N=2
2. CSc1n(Cc2ccc3ccccc3c2)c(C)c[n+]1Cc1ccc2ccccc2c1

Result string:
55.2
-47.5
